Exercise: for every item that follows, state its recorded pEC50.
- Assay system: Neuropeptide S receptor (Mus musculus)
- Sequence (Q8BZP8 whole entry): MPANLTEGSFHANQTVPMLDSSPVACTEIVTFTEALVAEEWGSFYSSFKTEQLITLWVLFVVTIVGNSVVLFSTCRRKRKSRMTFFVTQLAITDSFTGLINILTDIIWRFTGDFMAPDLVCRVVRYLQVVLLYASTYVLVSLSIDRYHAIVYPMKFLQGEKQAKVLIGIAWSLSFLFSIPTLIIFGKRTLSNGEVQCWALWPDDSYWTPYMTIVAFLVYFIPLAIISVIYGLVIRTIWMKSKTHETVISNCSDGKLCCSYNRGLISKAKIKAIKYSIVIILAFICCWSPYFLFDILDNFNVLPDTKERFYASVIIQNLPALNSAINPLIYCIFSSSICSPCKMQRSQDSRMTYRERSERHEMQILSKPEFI
- Procedure text: Agonist activity at mouse NPSR expressed in HEK293 cells assessed as increase in intracellular calcium mobilization by FLIPR
Non-standard residues stand in square brackets, D forms with d. Residues, ends and D or L forms follow the SMILES beside them. Nva = CCC[C@H](N)C(=O)O; Abu = CC[C@H](N)C(=O)O
One number for each entry, as −log10 of the molar value.

CCC[C@H](NC(=O)[C@H](Cc1ccccc1)NC(=O)[C@@H](N)CO)C(=O)N[C@@H](CC(N)=O)C(=O)NCC(=O)N[C@H](C(=O)NCC(=O)N[C@H](C(=O)NCC(=O)N[C@@H](CCSC)C(=O)N[C@@H](CCCCN)C(=O)N[C@@H](CCCCN)C(=O)N[C@H](C(=O)N[C@@H](CO)C(=O)N[C@@H](Cc1ccccc1)C(=O)N[C@@H](CCC(N)=O)C(=O)N[C@@H](CCCNC(=N)N)C(=O)N[C@@H](C)C(=O)N[C@@H](CCCCN)C(=O)N[C@@H](CO)C(=O)O)[C@@H](C)O)[C@@H](C)O)C(C)C (H-SF[Nva]NGVGTGMKKTSFQRAKS-OH) | 6.87

Would you kindly look at the next entry?
Looking up CC[C@H](NC(=O)[C@H](Cc1ccccc1)NC(=O)[C@@H](N)CO)C(=O)N[C@@H](CC(N)=O)C(=O)NCC(=O)N[C@H](C(=O)NCC(=O)N[C@H](C(=O)NCC(=O)N[C@@H](CCSC)C(=O)N[C@@H](CCCCN)C(=O)N[C@@H](CCCCN)C(=O)N[C@H](C(=O)N[C@@H](CO)C(=O)N[C@@H](Cc1ccccc1)C(=O)N[C@@H](CCC(N)=O)C(=O)N[C@@H](CCCNC(=N)N)C(=O)N[C@@H](C)C(=O)N[C@@H](CCCCN)C(=O)N[C@@H](CO)C(=O)O)[C@@H](C)O)[C@@H](C)O)C(C)C (H-SF[Abu]NGVGTGMKKTSFQRAKS-OH) , I found its pEC50 recorded as 6.29
